- System tested: human GPR40 (Homo sapiens)
- Sequence (O14842 whole entry): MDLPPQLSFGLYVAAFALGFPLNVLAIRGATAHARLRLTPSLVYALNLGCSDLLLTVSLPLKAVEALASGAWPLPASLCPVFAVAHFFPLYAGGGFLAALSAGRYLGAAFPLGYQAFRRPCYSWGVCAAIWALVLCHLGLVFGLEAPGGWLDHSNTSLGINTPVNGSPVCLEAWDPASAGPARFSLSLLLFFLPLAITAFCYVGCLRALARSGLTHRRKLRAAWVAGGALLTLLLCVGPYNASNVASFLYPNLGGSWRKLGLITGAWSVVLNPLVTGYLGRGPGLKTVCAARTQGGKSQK
- Assay explanation: Induction of Ca2+ (calcium flux assay) using human GPR40 expression cell line
- Experimental context: read-out: EC0.5
pEC50: −log10 of the molar value.
Listed here: items and their measured pEC50.

>>> value("CC#C[C@@H](CC(=O)O)c1ccc(OCc2ccc3c(cnn3CCC(C)C)c2)cc1")
"7.30 to 9.00"

Give reported pEC50 value for `CC#C[C@@H](CC(=O)O)c1ccc(OCc2ccc3c(c2)c(C)nn3CC(C)C)cc1` 7.30 to 9.00

Give reported pEC50 value for `CC#C[C@@H](CC(=O)O)c1ccc(OCc2ccc3c(cnn3C(C)C)c2)cc1` 7.30 to 9.00

Give reported pEC50 value for `CC#C[C@@H](CC(=O)O)c1ccc(OCc2ccc3c(c2)c(C)nn3C(C)C)cc1` 7.30 to 9.00

Give reported pEC50 value for `CC#C[C@@H](CC(=O)O)c1ccc(OCc2ccc3cnn(Cc4ccccc4)c3c2)cc1` 7.30 to 9.00

Give reported pEC50 value for `CC#C[C@@H](CC(=O)O)c1ccc(OCc2ccc3c(C)n(CC(C)C)nc3c2)cc1` 7.30 to 9.00

Give reported pEC50 value for `CC#C[C@@H](CC(=O)O)c1ccc(OCc2ccc3c(cnn3CC3CC3)c2)cc1` 7.30 to 9.00

Give reported pEC50 value for `CC#C[C@@H](CC(=O)O)c1ccc(OCc2ccc3cnn(CC4CCCC4)c3c2)cc1` 7.30 to 9.00

====

Listed here: items and their measured pEC50.
- System tested: human GPR40 (Homo sapiens)
- Construct: expressed in transfected cells; host or cells: CHO-K1
- Assay explanation: Induction of Ca2+ (calcium flux assay) using human GPR40 expression cell line
- Type: cell-based
- Experimental context: read-out: EC0.5
- Description: Evaluation of the Test Compounds for Induction of Ca^2+ Using Human GPR40 Expression Cell Line The cell line expressing human GPR40 was generated by transfection of the GPR40 expression vector into CHO-K1 cell, and used in the following calcium flux assay. […] After the above pre-treatment, the change in the intracellular calcium concentration when each concentration of the test compound solutions was added at 50 μl was measured by FlexStation II^384. […]
A value of pEC50 is the negative decimal logarithm of a concentration given in moles per litre.

Consider the following illustrative entries.
>>> value("O=C(O)CCc1ccc(NCc2ccc3ccn(-c4ccsc4)c3c2)cc1")
8.00
>>> value("CC#C[C@@H](CC(=O)O)c1ccc(OCc2ccnc3c2ccn3CC(C)C)cc1")
8.05
>>> value("O=C(O)C[C@@H](c1ccc(OCc2ccc3cnn(Cc4ccccc4)c3c2)cc1)c1ccon1")
8.00
>>> value("O=C(O)CC1COc2cc(OCc3ccc4ccn(Cc5ccccc5)c4n3)ccc21 (stereo not drawn)")
6.52
>>> value("CC#C[C@@H](CC(=O)O)c1ccc(OCc2ccc3cnn(Cc4ccc(F)cc4)c3c2)cc1")
8.00
>>> value("Cc1c(COc2ccc(CCC(=O)O)cc2)ccc2ccn(Cc3ccccc3)c12")
8.00
>>> value("O=C(O)CC1CCCc2cc(OCc3ccc4cnn(Cc5ccccc5)c4c3)ccc21 (stereo not drawn)")
6.70
>>> value("CC(C)Cn1ncc2ccc(COc3ccc([C@H](CC(=O)O)c4ccon4)cc3)cc21")
8.00

Give reported pEC50 value for `CC#C[C@@H](CC(=O)O)c1ccc(OCc2ccc3c(c2)n(C)c(=O)n3Cc2ccccc2)cc1` 8.30

Give reported pEC50 value for `CC#C[C@@H](CC(=O)O)c1ccc(OCc2ccc3c(COCC)nn(CC(C)C)c3c2)cc1` 8.00

Give reported pEC50 value for `CC#C[C@@H](CC(=O)O)c1ccc(OCc2ccc3c(c2)ncn3Cc2ccccc2)cc1` 7.70

Give reported pEC50 value for CC(C)Cn1ncc2cc(COc3ccc4c(c3)OCCC4CC(=O)O)ccc21 (stereo not drawn) 6.40

Give reported pEC50 value for `CC#C[C@@H](CC(=O)O)c1ccc(OCc2ccnc3c2ccn3C(C)C)cc1` 7.57
